system: RPMI-8226; test: NCI tumour cell line growth inhibition, 48 h
Activity calls are given as the source filed them. Rule as the data show it: active = GI50 up to about 1.1 µM and inactive = higher.

# compound, GI50
records = [
    ("COc1ccc(CNc2nc3cc(N)cc(N)c3nc2-c2ccccc2)cc1", "4.13 µM (inactive)"),
    ("Cc1ccccc1NC(=O)C(=O)CC(=O)c1c(C)[n+]([O-])c2ccccc2[n+]1[O-]", "> 100 µM (inactive)"),
    ("COc1ccc(-c2c(C#N)c(O)n(NS(=O)(=O)c3ccc(C)cc3)c(=O)c2C#N)cc1", "19.5 µM (inactive)"),
    ("N#CC(=S)Nc1ccc(Cl)c(Cl)c1", "3.2 µM (inactive)"),
    ("CCC(C)c1cnc(CC(C)C)c(=O)[nH]1 (configuration not stated)", "> 100 µM (inactive)"),
    ("CC(=O)Nc1ccc(/C=C2/NC(=S)N(/C=C3\\C(=O)Oc4ccccc4C3=O)C2=O)cc1", "47.9 µM (inactive)"),
    ("CC(=O)OC1C(COC(=O)c2ccccc2)OC(Nc2ncc(-c3ccc(Br)cc3)s2)C(OC(=O)c2ccccc2)C1OC(=O)c1ccccc1 (configuration not stated)", "> 100 µM (inactive)"),
    ("CC(C(=O)NCCNC(=O)CCCC(=O)N(C)O)C(=O)NCCNC(=O)CCCC(=O)N(C)O", "> 100 µM (inactive)"),
    ("Cc1nc2ccccc2c(=O)n1/N=C(\\N=N\\c1ccccc1)c1ccccc1Cl", "20.4 µM (inactive)"),
    ("COc1cc(C(C)O)c[n+](CCc2c[nH]c3ccccc23)c1 (configuration not stated)", "> 100 µM (inactive)"),
    ("O=C1CCCCC2N(C(c3ccccc3)c3ccccc3)CC[C@@]12c1ccccc1.O=C1CCCC[C@H]2N(C(c3ccccc3)c3ccccc3)CC[C@@]12c1ccccc1 (some centres not stated)", "2.77 µM (inactive)"),
    ("C=CCC12CC(=O)C=C1CCC1(C2)OCCO1 (configuration not stated)", "> 100 µM (inactive)"),
    ("CS(=O)(=O)O[C@H]1CN2C[C@@H](O)[C@@H](O)[C@H]2[C@H]1CO.[B]", "> 100 µM (inactive)"),
    ("CCOP(=O)(CCCC(O)CNc1cc(Cl)nc(N)n1)OCC (configuration not stated)", "> 100 µM (inactive)"),
    ("COC(=O)/C(=C/c1ccc(OC)cc1)c1cc(OC)c(OC)c(OC)c1", "2.52 µM (inactive)"),
    ("C(=C\\c1ccco1)/c1cccc(/C=C/c2ccco2)n1", "> 50 µM (inactive)"),
    ("CC1=C(O)C(=O)C2C(=O)C1C(C)C2c1ccccc1 (configuration not stated)", "> 100 µM (inactive)"),
    ("CN(C)CCOc1ccc2c(c1)C/C(=C/c1ncc([N+](=O)[O-])n1C)C2=O", "1.37 µM (inactive)"),
    ("O=C(O)C1CC(O)CN1 (configuration not stated)", "> 100 µM (inactive)"),
    ("Cc1nc2cccc([N+](=O)[O-])c2n1CCCN(C)C", "> 100 µM (inactive)"),
    ("Oc1c(Br)ccc2cccnc12", "2.79 µM (inactive)"),
    ("CCCCCCC1OC23OC1CCC2C(O)CCC3O (configuration not stated)", "> 100 µM (inactive)"),
]

Where do the numbers come from? From ChEMBL document CHEMBL1201862.
